Data credit: patent US5294632A

This section presents compounds with their documented IC50 values.
- TESTED TARGET: Neutral endopeptidase 3.4.24.11 (Rattus norvegicus)
- Sequence (P07861 whole entry): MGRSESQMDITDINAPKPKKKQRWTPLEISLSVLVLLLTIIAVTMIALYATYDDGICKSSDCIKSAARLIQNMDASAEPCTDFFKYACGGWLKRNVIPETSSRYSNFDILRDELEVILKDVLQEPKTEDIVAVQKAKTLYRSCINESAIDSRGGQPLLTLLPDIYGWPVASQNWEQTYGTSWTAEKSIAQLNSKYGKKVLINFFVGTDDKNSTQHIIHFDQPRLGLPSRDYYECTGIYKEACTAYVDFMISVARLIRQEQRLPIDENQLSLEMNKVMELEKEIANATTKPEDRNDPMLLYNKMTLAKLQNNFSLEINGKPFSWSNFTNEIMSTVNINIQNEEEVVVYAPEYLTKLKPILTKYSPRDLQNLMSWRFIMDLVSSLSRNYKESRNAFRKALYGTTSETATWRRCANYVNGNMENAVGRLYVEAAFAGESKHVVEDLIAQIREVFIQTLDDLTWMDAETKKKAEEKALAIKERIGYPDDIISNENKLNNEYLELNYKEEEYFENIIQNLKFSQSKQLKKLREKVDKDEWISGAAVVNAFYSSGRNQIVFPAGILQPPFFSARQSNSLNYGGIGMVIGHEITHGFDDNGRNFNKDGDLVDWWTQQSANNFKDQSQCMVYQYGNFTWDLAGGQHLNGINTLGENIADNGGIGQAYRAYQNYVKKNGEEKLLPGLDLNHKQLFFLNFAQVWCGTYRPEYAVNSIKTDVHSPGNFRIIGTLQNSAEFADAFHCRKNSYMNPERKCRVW

| COMPOUND | TESTED TARGET | IC50 |
| --- | --- | --- |
| O=C(O)CCNC(=O)C(Cc1ccc(-c2ccccc2)cc1)NCP(=O)(O)O (centres unmarked) | Neutral endopeptidase 3.4.24.11 (Rattus norvegicus) | ~4.3 nM |

Shifting focus to the compound that follows.
## Input What value of measured IC50 is listed for O=C(O)CCNC(=O)[C@H](Cc1ccc(-c2ccccc2)cc1)NCP(=O)(O)O [(S)-antipode] ?
## Output ~1.6 nM
